Source listed as patent US10544147B2.

Overview of recorded Relative Selectivity versus PI3Kalpha for various compounds
SYSTEM_NAME: PI3Kalpha (Homo sapiens (Human))
ASSAY_COMMENT: HTRF PI3K biochemical assay, alpha isoform (selectivity versus delta)
RUN_CONDITIONS: ratio PI3K-alpha IC50 value/PI3K-delta IC50 value
Experimental: HTRF PI3K Biochemical Assay to Measure Intrinsic Potency of Compound Inhibitors This loss of signal is nonlinear with respect to both increasing product and time. This non-linear detection will impact accuracy of IC50 calculations; therefore, there is a need for a correction factor to obtain more accurate IC50 values. […] All data were calculated using the ratio of acceptor (APC) to donor (Europium) fluorescence in each well of the assay plate. […]

Example entries and their recorded answers appear below.
CCn1c(-c2cnc(C)nc2)nc2c(-c3ccc4c(c3)C(C)(CC3CC3)C(=O)N4C)ncnc21 (single isomer, unassigned) [Compound 1-10] | >10
CCn1c(-c2cnc(C)nc2)nc2c(-c3ccc4c(c3)C(C)(NCC3(C#N)CCC3)C(=O)N4)ncnc21 (racemic) | >10

Continue with the compound presented below.
Request: Name the reported Relative Selectivity versus PI3Kalpha value associated with the compound Cc1ncc(-c2nc3c(-c4ccc5c(c4)C(C)(NCC(C)(C)F)C(=O)N5)ncnc3n2C)cn1 (single isomer, unassigned) [Compound 2-68]
Result: >10

* * *

SYSTEM_NAME: PI3Kalpha (Homo sapiens (Human), UniProt P42336)
Sequence (P42336 whole entry, canonical isoform): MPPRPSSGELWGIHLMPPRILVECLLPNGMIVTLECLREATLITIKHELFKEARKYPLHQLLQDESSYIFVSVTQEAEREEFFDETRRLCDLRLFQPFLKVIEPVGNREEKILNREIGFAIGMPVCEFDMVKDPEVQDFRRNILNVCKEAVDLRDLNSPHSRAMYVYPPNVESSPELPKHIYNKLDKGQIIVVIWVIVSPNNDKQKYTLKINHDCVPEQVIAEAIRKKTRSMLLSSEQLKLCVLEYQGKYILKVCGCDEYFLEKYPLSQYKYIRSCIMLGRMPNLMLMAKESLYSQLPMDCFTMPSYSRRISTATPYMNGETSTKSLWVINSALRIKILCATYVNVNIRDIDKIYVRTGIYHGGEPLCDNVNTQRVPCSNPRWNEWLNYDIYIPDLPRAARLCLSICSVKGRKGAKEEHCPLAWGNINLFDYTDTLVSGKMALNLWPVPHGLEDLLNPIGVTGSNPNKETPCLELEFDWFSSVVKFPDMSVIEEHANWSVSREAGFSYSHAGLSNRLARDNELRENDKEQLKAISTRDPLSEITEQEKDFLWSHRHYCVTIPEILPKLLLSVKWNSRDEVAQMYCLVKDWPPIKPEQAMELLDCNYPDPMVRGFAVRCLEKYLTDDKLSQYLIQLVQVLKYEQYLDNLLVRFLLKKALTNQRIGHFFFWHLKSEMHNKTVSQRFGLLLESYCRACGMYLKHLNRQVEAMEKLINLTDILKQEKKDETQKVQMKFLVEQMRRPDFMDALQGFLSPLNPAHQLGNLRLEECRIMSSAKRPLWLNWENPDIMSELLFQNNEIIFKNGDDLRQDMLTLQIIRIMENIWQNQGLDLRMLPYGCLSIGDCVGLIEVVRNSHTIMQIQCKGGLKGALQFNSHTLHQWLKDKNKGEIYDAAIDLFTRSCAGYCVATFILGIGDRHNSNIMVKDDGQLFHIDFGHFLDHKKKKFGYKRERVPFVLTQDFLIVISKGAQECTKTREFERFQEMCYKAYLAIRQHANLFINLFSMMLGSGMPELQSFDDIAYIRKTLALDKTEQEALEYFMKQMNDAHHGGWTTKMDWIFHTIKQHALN
Sequence (P27986 whole entry partner, canonical isoform): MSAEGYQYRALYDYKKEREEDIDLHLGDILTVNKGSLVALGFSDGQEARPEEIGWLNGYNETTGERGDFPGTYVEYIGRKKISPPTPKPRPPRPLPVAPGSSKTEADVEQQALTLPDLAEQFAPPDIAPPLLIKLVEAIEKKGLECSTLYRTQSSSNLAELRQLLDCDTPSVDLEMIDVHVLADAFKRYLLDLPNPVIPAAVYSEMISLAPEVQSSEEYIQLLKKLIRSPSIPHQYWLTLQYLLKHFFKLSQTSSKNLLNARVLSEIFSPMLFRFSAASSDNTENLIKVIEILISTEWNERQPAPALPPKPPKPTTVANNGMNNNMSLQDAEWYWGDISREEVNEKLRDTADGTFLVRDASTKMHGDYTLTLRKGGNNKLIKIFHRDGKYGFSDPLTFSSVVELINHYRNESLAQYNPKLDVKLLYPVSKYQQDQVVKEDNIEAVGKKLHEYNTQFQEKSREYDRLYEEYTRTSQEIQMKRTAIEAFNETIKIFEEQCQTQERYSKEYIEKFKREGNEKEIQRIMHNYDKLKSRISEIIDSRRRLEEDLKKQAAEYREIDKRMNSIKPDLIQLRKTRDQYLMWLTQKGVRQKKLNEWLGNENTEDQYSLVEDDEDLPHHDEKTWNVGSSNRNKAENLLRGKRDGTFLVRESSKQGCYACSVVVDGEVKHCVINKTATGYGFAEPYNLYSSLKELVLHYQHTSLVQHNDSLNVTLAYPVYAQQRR
ASSAY_COMMENT: HTRF PI3K biochemical assay, alpha isoform (selectivity versus delta)
RUN_CONDITIONS: ratio PI3K-alpha IC50 value/PI3K-delta IC50 value
Overview of recorded Relative Selectivity versus PI3Kalpha for various molecules

Example entries and their recorded answers appear below.
CCn1c(-c2cnc(C)nc2)nc2c(-c3ccc4c(c3)C(C)(OCC3CC3)C(=O)N4)ncnc21 (single isomer, unassigned) [Compound 2-57] | >10
CCn1c(C(F)F)nc2c(-c3ccc4c(c3)C(C)(Cc3ccccc3)C(=O)N4)ncnc21 (single isomer, unassigned) [Compound 1-24] | >10
CCn1c(-c2cnc(C)nc2)nc2c(-c3ccc4[nH]c(=O)n(C(C)C5CC5)c4c3)ncnc21 (single isomer, unassigned) [Compound 5-7] | >10
Cc1ncc(-c2nc3c(-c4cnc5c(c4)C(C)(NCC(C)(C)F)C(=O)N5)ncnc3n2C)cn1 (single isomer, unassigned) [Compound 2-59] | >10
CCn1c(-c2cnc(C)nc2)nc2c(-c3ccc4c(c3)C(C)(CC(C)C)NC4=O)ncnc21 (single isomer, unassigned) [Compound 4-7] | >10

Continue with the molecule presented below.
Request: Name the reported Relative Selectivity versus PI3Kalpha value associated with the molecule CCn1c(-c2cnc(C)nc2)nc2c(-c3ccc4c(c3)C(C)(N[C@@H](C)C3CC3)C(=O)N4)ncnc21 (single isomer, unassigned) [Compound 2-12]
Result: >10

* * *

SYSTEM_NAME: PI3Kdelta (Homo sapiens (Human))
ASSAY_COMMENT: HTRF PI3K biochemical assay, delta isoform
RUN_CONDITIONS: 0.3 nM enzyme, 100 uM ATP, 50 uM PIP2; form screened (neutral or TFA salt)
PROPERTY_MEASURED: IC50 (nM)

Example entries and their recorded answers appear below.
CCn1c(-c2cnc(C)nc2)nc2c(-c3ccc4oc(=O)n(C5CCOCC5)c4c3)ncnc21 | 151
CCn1c(-c2cnc(C)nc2)nc2c(-c3ccc4[nH]c(=O)n(C(C)C5CC5)c4c3)ncnc21 (single isomer, unassigned) [Compound 5-7] | 3

[1] CCn1c(-c2cnc(C)nc2)nc2c(-c3ccc4c(c3)C(C)(Cc3ccccc3)N(C)C4=O)ncnc21 (single isomer, unassigned)
[2] CCn1c(-c2cnc(C)nc2)nc2c(-c3ccc4c(c3)C(C)(N3C[C@@H](F)[C@H](F)C3)C(=O)N4)ncnc21 (single isomer, unassigned) [Compound 2-61]
Request: Exercise: compare 1 and 2 ; which one has the greater IC50? Label of pick, please.
Result: 2

[P] CCn1c(-c2cnc(C)nc2)nc2c(-c3cnc4c(c3)C(C)(N3CC(C)(C#N)C3)C(=O)N4)ncnc21 (single isomer, unassigned) [Compound 2-54]
[Q] CCn1c(-c2cnc(C)nc2)nc2c(-c3ccc4c(c3)C(C)(N[C@H](C)C3CC3)C(=O)N4)ncnc21 (mixture of isomers)
Request: Exercise: compare P and Q ; which one has the greater IC50? Label of pick, please.
Result: P

* * *

SYSTEM_NAME: PI3Kdelta (Homo sapiens (Human), UniProt O00329)
Sequence (O00329 whole entry, canonical isoform): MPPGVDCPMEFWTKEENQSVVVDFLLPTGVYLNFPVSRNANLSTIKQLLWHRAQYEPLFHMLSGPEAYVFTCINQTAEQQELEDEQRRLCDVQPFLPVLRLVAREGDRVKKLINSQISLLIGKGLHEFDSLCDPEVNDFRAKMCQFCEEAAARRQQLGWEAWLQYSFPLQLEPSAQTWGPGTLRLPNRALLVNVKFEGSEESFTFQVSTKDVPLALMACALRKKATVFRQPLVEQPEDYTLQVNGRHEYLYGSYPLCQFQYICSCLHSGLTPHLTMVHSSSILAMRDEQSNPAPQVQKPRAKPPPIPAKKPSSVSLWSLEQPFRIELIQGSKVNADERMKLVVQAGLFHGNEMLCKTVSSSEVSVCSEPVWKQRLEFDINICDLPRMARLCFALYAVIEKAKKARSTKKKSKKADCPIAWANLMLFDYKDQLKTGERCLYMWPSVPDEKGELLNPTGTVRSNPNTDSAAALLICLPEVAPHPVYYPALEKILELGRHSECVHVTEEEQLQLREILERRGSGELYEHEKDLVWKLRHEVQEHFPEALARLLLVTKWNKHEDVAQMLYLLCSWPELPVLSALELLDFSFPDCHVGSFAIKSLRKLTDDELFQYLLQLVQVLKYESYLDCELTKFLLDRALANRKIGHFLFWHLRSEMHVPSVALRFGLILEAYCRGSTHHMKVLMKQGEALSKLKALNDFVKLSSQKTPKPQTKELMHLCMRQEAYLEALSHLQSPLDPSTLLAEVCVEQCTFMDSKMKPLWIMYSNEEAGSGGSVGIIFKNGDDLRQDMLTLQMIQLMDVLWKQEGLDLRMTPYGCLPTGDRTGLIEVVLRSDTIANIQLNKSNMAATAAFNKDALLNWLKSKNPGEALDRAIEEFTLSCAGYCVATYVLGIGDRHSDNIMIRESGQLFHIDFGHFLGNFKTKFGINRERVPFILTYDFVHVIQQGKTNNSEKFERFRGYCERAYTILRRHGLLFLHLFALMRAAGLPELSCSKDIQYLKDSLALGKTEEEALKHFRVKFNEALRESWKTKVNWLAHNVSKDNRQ
Sequence (P27986 whole entry partner, canonical isoform): as the sequence (P27986 whole entry partner, canonical isoform) above
ASSAY_COMMENT: HTRF PI3K biochemical assay, delta isoform
RUN_CONDITIONS: 0.3 nM enzyme, 100 uM ATP, 50 uM PIP2; form screened (neutral or TFA salt)
pIC50: −log10 of the molar value.
PROPERTY_MEASURED: pIC50

CCn1c(-c2cnc(C)nc2)nc2c(-c3ccc4c(c3)C(C)(CC(C)(C)O)C(=O)N4)ncnc21 (single isomer, unassigned) [Compound 1-40] | 6.85
CCn1c(-c2cnc(C)nc2)nc2c(-c3ccc4c(c3)C(C)(N3CCn5nccc5C3)C(=O)N4)ncnc21 (racemic) [Compound 2-24] | 7.17
CCn1c(-c2cnc(C)nc2)nc2c(-c3ccc4c(c3)C(Cc3ccccc3)OC(=O)N4)ncnc21 (single isomer, unassigned) [Compound 4-2] | 7.46
CCn1c(-c2cnc(C)nc2)nc2c(-c3ccc4c(c3)C(C)(Nc3ccncc3)C(=O)N4)ncnc21 (racemic) [Compound 2-9] | 6.84
CCN1CCCC12C(=O)Nc1ccc(-c3ncnc4c3nc(-c3cnc(C)nc3)n4CC)cc12 (single isomer, unassigned) [Compound 3-27] | 8.05
Cc1ncc(-c2nc3c(-c4ccc5c(c4)C4(CCCN4C(C)C)C(=O)N5)ncnc3n2C)cn1 (single isomer, unassigned) [Compound 3-14] | 8.70

[1] Cc1ncc(-c2nc3c(-c4ccc5c(c4)C(C)(NCC(C)(C)F)C(=O)N5)ncnc3n2C)cn1 (single isomer, unassigned) [Compound 2-67]
[2] CCn1c(-c2cnc(C)nc2)nc2c(-c3ccc4c(c3)C(C)(N3CCOCC35CCC5)C(=O)N4)ncnc21 (racemic) [Compound 2-23]
[3] CCn1c(-c2cnc(C)nc2)nc2c(-c3ccc4c(c3)C3(CCCN3)C(=O)N4)ncnc21 (single isomer, unassigned) [Compound 3-33]
Request: Put the items in sequence by pIC50, from largest down. Thanks in advance for listing the labels in the requested order.
Result: 2, 3, 1

[A] CCN1CCCC12C(=O)Nc1ccc(-c3ncnc4c3nc(-c3cnc(C)nc3)n4C)cc12 (single isomer, unassigned) [Compound 3-28]
[B] CCn1c(-c2cnc(C)nc2)nc2c(-c3ccc4c(c3)C(C)(N3CC(OC)C3)C(=O)N4)ncnc21 (single isomer, unassigned) [Compound 2-79]
Request: Exercise: compare A and B ; which one has the greater pIC50? Label of pick, please.
Result: B

[I] CCn1c(-c2cnc(C)nc2)nc2c(-c3ccc4c(c3)C(C)(NCC3(F)COC3)C(=O)N4)ncnc21 (single isomer, unassigned) [Compound 2-71]
[II] CCn1c(-c2cnc(C)nc2)nc2c(-c3ccc4c(c3)C3(CCN(C(=O)C5CC5)C3)C(=O)N4)ncnc21 (single isomer, unassigned) [Compound 3-5]
[III] CCn1c(-c2cnc(C)nc2)nc2c(-c3ccc4c(c3)C3(CCN(C(C)C)C3)C(=O)N4)ncnc21 (single isomer, unassigned) [Compound 3-36]
Request: Hi! Can you put these in order of pIC50, lowest number first? Thanks in advance for listing the labels in the requested order.
Result: I, II, III
(I: 6.66, II: 7.20, III: 7.59)

* * *

SYSTEM_NAME: PI3Kalpha (Homo sapiens (Human), UniProt P42336)
ASSAY_COMMENT: HTRF PI3K biochemical assay, alpha isoform (selectivity versus delta)
RUN_CONDITIONS: ratio PI3K-alpha IC50 value/PI3K-delta IC50 value
PROPERTY_MEASURED: Relative Selectivity versus PI3Kalpha

CCn1c(-c2cnc(C)nc2)nc2c(-c3ccc4c(c3)C(C)(Cc3ccccc3)C(=O)N4C)ncnc21 (single isomer, unassigned) [Compound 1-20] | 3

Request: Name the reported Relative Selectivity versus PI3Kalpha value associated with the molecule CCn1c(-c2cnc(C)nc2)nc2c(-c3ccc4c(c3)C(C)(NCC3(F)COC3)C(=O)N4)ncnc21 (single isomer, unassigned) [Compound 2-71]
Result: >10

Request: Name the reported Relative Selectivity versus PI3Kalpha value associated with the molecule CCn1c(-c2cnc(C)nc2)nc2c(-c3ccc4c(c3)C3(CCCO3)C(=O)N4)ncnc21 (single isomer, unassigned) [Compound 3-31]
Result: >10

* * *

SYSTEM_NAME: UniProt:O00329
ASSAY_COMMENT: HTRF PI3K biochemical assay, delta isoform
RUN_CONDITIONS: 0.3 nM enzyme, 100 uM ATP, 50 uM PIP2; form screened (neutral or TFA salt)
Procedure: HTRF PI3K Biochemical Assay to Measure Intrinsic Potency of Compound Inhibitors This loss of signal is nonlinear with respect to both increasing product and time. This non-linear detection will impact accuracy of IC50 calculations; therefore, there is a need for a correction factor to obtain more accurate IC50 values. […] All data were calculated using the ratio of acceptor (APC) to donor (Europium) fluorescence in each well of the assay plate. […]
PROPERTY_MEASURED: IC50 (µM)

Cc1ncc(-c2nc3c(-c4cnc5c(c4)C(C)(CC(C)C)C(=O)N5)ncnc3n2C)cn1 (single isomer, unassigned) [Compound 1-27] | 0.005

[a] CCn1c(-c2cnc(C)nc2)nc2c(-c3ccc4c(c3)C(C)(NCC3CCC3)C(=O)N4)ncnc21 (racemic) [Compound 2-20]
[b] CCn1c(-c2cnc(C)nc2)nc2c(-c3ccc4c(c3)C(C)(NCCOC)C(=O)N4)ncnc21 (racemic) [Compound 2-16]
Request: Could you tell me which of these two has the smaller IC50 figure? First: a Second: b Label of pick, please.
Result: a
